# Measured target: Bromodomain-containing protein 4 (Homo sapiens) (UniProt O60885)
# Condition notes: Compound concentration 20.0 uM, Protein concentration 2.0 uM, Result type QC Liability
Reported property: ΔTm
Give the figure together with its unit, number first.

FC(F)(F)c1ccc(CNc2ccc(Cc3c[nH]c4ncc(Cl)cc34)cn2)cn1; 2 °C
Cc1cc(-c2ccnc(Nc3cnn(C)c3)n2)ccc1CNC(=O)N1CC(OC(C)C)C1; -2.36 °C
CNc1nc(-c2ccc3c(N)n[nH]c3c2)cc(N2C[C@@H](C(=O)NC3CCCCC3)CC[C@H]2C)n1; 0.26 °C
CC(C=CC1=C(C)CCCC1(C)C)=CC=CC(C)=CC(=O)O; -5.12 °C

From here, focus on the item given below.
Query COc1ncc(-c2cc(-c3ncc(CN4C[C@@H](C)O[C@@H](C)C4)o3)c3cn[nH]c3c2)cc1NS(C)(=O)=O yields ΔTm of 0.37 °C
